Target: T1, carcinoembryonic antigen (CEA) (UniProt P06731 35-685, limits assumed, biotinylated (labelled form); unlabelled CEA (Calbiochem) used as competitor in the off-rate assays)
T1 construct: also called biotinylated-CEA; bio-CEA
T1 sequence (looked up): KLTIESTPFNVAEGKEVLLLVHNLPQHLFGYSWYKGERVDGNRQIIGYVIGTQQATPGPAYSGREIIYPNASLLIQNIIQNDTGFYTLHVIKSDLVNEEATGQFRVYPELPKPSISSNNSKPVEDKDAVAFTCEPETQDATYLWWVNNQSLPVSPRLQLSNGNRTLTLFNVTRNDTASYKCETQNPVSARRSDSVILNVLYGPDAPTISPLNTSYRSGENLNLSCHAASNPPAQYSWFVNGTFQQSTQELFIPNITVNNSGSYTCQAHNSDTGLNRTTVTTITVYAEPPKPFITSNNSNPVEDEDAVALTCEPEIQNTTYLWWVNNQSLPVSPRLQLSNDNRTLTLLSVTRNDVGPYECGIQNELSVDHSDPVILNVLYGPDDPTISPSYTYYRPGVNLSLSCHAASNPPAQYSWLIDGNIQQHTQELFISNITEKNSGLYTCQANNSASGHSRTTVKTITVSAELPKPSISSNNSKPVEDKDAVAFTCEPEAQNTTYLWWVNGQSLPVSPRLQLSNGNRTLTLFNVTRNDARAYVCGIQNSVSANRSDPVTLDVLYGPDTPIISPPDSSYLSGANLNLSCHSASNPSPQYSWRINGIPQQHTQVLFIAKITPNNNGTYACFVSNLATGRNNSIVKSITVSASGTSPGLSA
Experiment: off-rate analysis on the yeast surface at 37 C
READOUT_LABEL: koff
A complete answer gives the number and then names the unit.

Input humanized MFE-23 (hMFE) scFv (scFv, also called hMFE-23; resurfaced scFv) scFv: PYDVPDYALQASGGGGSGGGGSGGGGSASQVKLEQSGAEVVKPGASVKLSCKASGFNIKDSYMHWLRQGPGQRLEWIGWIDPENGDTEYAPKFQGKATFTTDTSANTAYLGLSSLRPEDTAVYYCNEGTPTGPYYFDYWGQGTLVTVSSGGGGSGGGGSGGGGSENVLTQSPSSMSASVGDRVNIACSASSSVSYMHWFQQKPGKSPKLWIYSTSNLASGVPSRFSGSGSGTDYSLTISSMQPEDAATYYCQQRSSYPLTFGGGTKLEIKAAAGSEQKLISEEDL . Output koff: 0.0009 s⁻¹

Source: patent US20050147614A1
